# assay.comment: AUC(0 to 6 hrs) in adult fasted Sprague-Dawley rat at 30 mg/kg, po administered as 125 mM aqueous Gly-Sar solution by HPLC-tandem mass spectrometry
# Assay type: ADME, organism-based
# Set-up: time < 6 hr, dose 30 mg/kg, route oral
# condition: plasma
test.readout: AUC(0-t) at 6 h (ng·h/mL)

(I) CCC(CC)O[C@@H]1C=C(C(=O)O)C[C@H](N)[C@H]1NC(C)=O [OSELTAMIVIR CARBOXYLATE]
(II) CCOC(=O)C1=C[C@@H](OC(CC)CC)[C@H](NC(C)=O)[C@@H](N)C1
(Q) Exercise: compare I and II ; which one has the greater AUC(0-t) at 6 h? Selection: enter the item's label.
(A) I
